Record: IC50 reported on Dipeptidyl peptidase 2 (Homo sapiens, UniProt Q9UHL4).

# Item Smiles, IC50
rows = [
    ("CC(C)(CC(=O)N[C@H]1C[C@@H]1c1cccc(OC(F)(F)F)c1)NCC(=O)N1CCC[C@H]1C#N", "> 20 µM"),
    ("CC(C)(CC(=O)N[C@H]1C[C@@H]1c1cccc(C(F)(F)F)c1)NCC(=O)N1CCC[C@H]1C#N", "> 20 µM"),
    ("CC(C)(CC(=O)N[C@@H]1C[C@H]1c1cccc(Cl)c1)NCC(=O)N1CCC[C@H]1C#N", "17 µM"),
    ("CC(C)(CC(=O)N[C@H]1C[C@@H]1c1ccc(Cl)c(Cl)c1)NCC(=O)N1CCC[C@H]1C#N", "> 20 µM"),
    ("CC(C)(CC(=O)N[C@H]1C[C@@H]1c1ccccc1)NCC(=O)N1C[C@@H](F)C[C@H]1C#N", "> 20 µM"),
    ("CC(C)(CC(=O)N[C@H]1C[C@@H]1c1ccccc1)NCC(=O)N1CCC[C@H]1C#N", "16 µM"),
    ("COc1cccc([C@H]2C[C@@H]2NC(=O)CC(C)(C)NCC(=O)N2C[C@@H](F)C[C@H]2C#N)c1", "> 20 µM"),
    ("Cc1ncsc1[C@H]1C[C@@H]1NC(=O)CC(C)(C)NCC(=O)N1C[C@@H](F)C[C@H]1C#N", "> 20 µM"),
    ("CC(C)(CC(=O)N[C@H]1C[C@@H]1c1cccc(F)c1)NCC(=O)N1CCC[C@H]1C#N", "> 20 µM"),
    ("COc1ccc([C@H]2C[C@@H]2NC(=O)CC(C)(C)NCC(=O)N2CCC[C@H]2C#N)cc1OC", "> 20 µM"),
    ("CC(C)(CC(=O)N[C@H]1C[C@@H]1c1ccc(Cl)cc1)NCC(=O)N1CCC[C@H]1C#N", "> 20 µM"),
    ("CC(C)(CC(=O)N[C@@H]1C[C@H]1c1cccc(Cl)c1)NCC(=O)N1C[C@@H](F)C[C@H]1C#N", "5.2 µM"),
]
